Assay: Plasma concentration after oral administration
Type: in vivo, SD male rats
Conditions: 10 mg/kg oral, suspended in 5% gum arabic, HPLC
Documented Maximum concentration in blood across a set of compounds
readout.type: Maximum concentration in blood (µg/mL)

[[record]]
compound = "Cc1c2c(c(NC(=O)C(C)(C)C)c(C)c1NS(C)(=O)=O)N(C1CCCC1)CC2"
readout_type = "Maximum concentration in blood"
measured_value = 2.03

[[record]]
compound = "CCN1CCc2c(C)c(NS(C)(=O)=O)c(C)c(NC(=O)C(C)(C)C)c21"
readout_type = "Maximum concentration in blood"
measured_value = 2.90

[[record]]
compound = "CCCCN1CCc2c(C)c(NS(C)(=O)=O)c(C)c(NC(=O)C(C)(C)C)c21"
readout_type = "Maximum concentration in blood"
measured_value = 3.05

[[record]]
compound = "CCCCCCN1CCc2c(C)c(NS(C)(=O)=O)c(C)c(NC(=O)C(C)(C)C)c21"
readout_type = "Maximum concentration in blood"
measured_value = 1.12

[[record]]
compound = "CCCCCN1CCc2c(C)c(NS(C)(=O)=O)c(C)c(NC(=O)C(C)(C)C)c21"
readout_type = "Maximum concentration in blood"
measured_value = 1.98

[[record]]
compound = "Cc1c2c(c(NC(=O)C(C)(C)C)c(C)c1NS(C)(=O)=O)N(CCC(C)C)CC2"
readout_type = "Maximum concentration in blood"
measured_value = 1.36

[[record]]
compound = "CCCN1CCc2c(C)c(NS(C)(=O)=O)c(C)c(NC(=O)C(C)(C)C)c21"
readout_type = "Maximum concentration in blood"
measured_value = 2.30

[[record]]
compound = "CCCN1c2c(c(C)c(NS(N)(=O)=O)c(C)c2NC(=O)C(C)(C)C)CC1C.Cl (stereo not drawn)"
readout_type = "Maximum concentration in blood"
measured_value = 1.31

[[record]]
compound = "Cc1c2c(c(NC(=O)C(C)(C)C)c(C)c1NS(C)(=O)=O)N(CC(C)C)CC2"
readout_type = "Maximum concentration in blood"
measured_value = 1.68

